measurementTarget: human Yes (Homo sapiens)
Sequence (P07947 whole entry): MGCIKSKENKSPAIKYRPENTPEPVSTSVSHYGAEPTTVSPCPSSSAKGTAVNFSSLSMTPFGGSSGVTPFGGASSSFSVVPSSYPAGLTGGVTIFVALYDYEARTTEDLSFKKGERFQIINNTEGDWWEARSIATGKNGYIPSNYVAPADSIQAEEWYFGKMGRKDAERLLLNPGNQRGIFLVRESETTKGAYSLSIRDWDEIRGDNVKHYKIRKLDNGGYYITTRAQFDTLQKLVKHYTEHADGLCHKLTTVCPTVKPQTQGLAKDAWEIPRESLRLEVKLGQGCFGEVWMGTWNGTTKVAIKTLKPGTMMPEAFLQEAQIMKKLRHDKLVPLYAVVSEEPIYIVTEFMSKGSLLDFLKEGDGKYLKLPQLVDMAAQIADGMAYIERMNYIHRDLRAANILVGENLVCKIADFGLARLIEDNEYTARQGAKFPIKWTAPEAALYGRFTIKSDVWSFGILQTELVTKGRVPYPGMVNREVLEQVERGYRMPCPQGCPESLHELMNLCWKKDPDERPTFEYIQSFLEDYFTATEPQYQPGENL
assayInfo: Yes kinase inhibition, luciferase-based residual ATP (KinaseGlo)
assayContext: recombinant human Yes, ATP 3 μM, PTK2 substrate, 90 minutes at room temperature
pIC50: −log10 of the molar value.
readout: pIC50

# count of solved cases: 2
Measured on human Yes (Homo sapiens), CN1CCN(C(=O)c2ccc(Nc3ncc(NC(=O)c4cc(O)ccc4Cl)cn3)cc2)CC1 [drawing 207] has a documented pIC50 of 8.00

Form field pIC50 for item O=C(NCCN1CCCC1)c1ccc(Nc2ncc(NC(=O)c3cc(O)ccc3Cl)cn2)cn1 [drawing 204] on human Yes (Homo sapiens): 8.51

P. O=C(Nc1cnc(Nc2cccc(OCCN3CCCC3)c2)nc1)c1cc(O)ccc1Cl [drawing 201]
Q. O=C(Nc1cnc(Nc2ccc(S(=O)(=O)CCCN3CCCC3)cc2)nc1)c1cc(O)ccc1Cl [drawing 206]
R. O=C(NCCN1CCCC1)c1csc(Nc2ncc(NC(=O)c3cc(O)ccc3Cl)cn2)n1 [drawing 209]
S. Clc1cccc(Cl)c1CNc1cnc(Nc2cccc(OCCN3CCCC3)c2)nc1 [drawing 211]
Number of molecules to sort: 4. Sort criterion: pIC50, ascending. Give the order by naming the labels one after another as requested. R, P, S, Q
